Data origin: patent US9815842B2

Tested on: Human IL2 promoter
Assay: Human IL2 promoter reporter gene assay (RGA) in Jurkat cells
Format: cell-based
Details: Jurkat clone K22 290_H23, anti-CD28 mAb + PMA stimulation 5.5 h
OUTCOME_MEASURE: IC50 (µM)
Kindly answer with a numeric value in µM, unit omitted.

IC50 value, target or system Human IL2 promoter, for CCC(C)c1c(NC(=O)Nc2cnc(-n3nccn3)c(Cl)c2)cnc2cc(Cl)nn12 (centres unmarked) : 0.059

Simply: CO[C@@H](C)c1c(NC(=O)Nc2ccnc(C(F)F)c2)cnc2cc(Cl)nn12 , Human IL2 promoter, IC50 = 0.046

Lab note: molecule CC(C)c1c(NC(=O)Nc2ccc(-c3ccnc(N)n3)c(Cl)c2)cnc2cc(Cl)nn12 tested on Human IL2 promoter; recorded IC50 was 0.307

Human IL2 promoter assay, molecule COc1ncc(NC(=O)Nc2cnc3cc(Cl)nn3c2[C@H](C)OC)cc1Cl , recorded IC50 = 0.109

Fill in: Human IL2 promoter IC50 for CO[C@@H](C)c1c(NC(=O)Nc2cnc(-n3nccn3)c(Cl)c2)cnc2cc(Cl)nn12 = 0.019

Value sought: IC50, system Human IL2 promoter, item C[C@H](O[C@@H]1CCOC1)c1c(NC(=O)Nc2cnc(-n3nccn3)c(Cl)c2)cnc2cc(Cl)nn12 . Result: 0.084

Field IC50 (Human IL2 promoter), entry CC(C)c1c(NC(=O)Nc2cc(C(F)(F)F)cn(C)c2=O)cnc2cc(Cl)nn12 : 0.221

I looked up CCOc1ncc(NC(=O)Nc2cnc3cc(Cl)nn3c2C(C)C)cc1Cl and its IC50 for Human IL2 promoter was 0.526

Reading of IC50 for COc1ncc(NC(=O)Nc2cnc3cc(C)nn3c2C2(C)CC2)cc1Cl with Human IL2 promoter: 0.091

GET /values?item= COCC1(c2c(NC(=O)Nc3ccnc(C(F)(F)F)c3)cnc3cc(C)nn23)CC1 &system= Human IL2 promoter returns IC50: 0.206

Summary line: C[C@H](OC[C@H]1CCOC1)c1c(NC(=O)Nc2cnc(-n3nccn3)c(Cl)c2)cnc2cc(Cl)nn12 , Human IL2 promoter, reported IC50 = 0.014

# Cc1ncn(-c2ccc(NC(=O)Nc3cnc4cc(Cl)nn4c3C(C)C)cc2C#N)n1 with Human IL2 promoter: IC50 is 0.149

Reported Human IL2 promoter IC50 for item COCCO[C@@H](C)c1c(NC(=O)Nc2cnc(OC(F)F)c(Cl)c2)cnc2cc(Cl)nn12 was 0.068

Measured IC50 (Human IL2 promoter), entry Cc1cnn(-c2ncc(NC(=O)Nc3cnc4cc(Cl)nn4c3C(C)C)cc2Cl)n1 : 0.1

Measured IC50 (Human IL2 promoter), entry COC[C@@H](OC)c1c(NC(=O)Nc2cnc(-n3nccn3)c(Cl)c2)cnc2cc(Cl)nn12 : 0.078

I looked up CC(C)c1c(NC(=O)Nc2ccc(-n3nccn3)c(Cl)c2)cnc2cc(Cl)nn12 and its IC50 for Human IL2 promoter was 0.245

Fill in: Human IL2 promoter IC50 for Cc1c(NC(=O)Nc2cnc(-n3nccn3)c(Cl)c2)cnc2cc(Cl)nn12 = 0.266

The value of IC50 recorded for COC[C@H](OC)c1c(NC(=O)Nc2cnc(-n3nccn3)c(Cl)c2)cnc2cc(Cl)nn12 when tested on Human IL2 promoter reads 0.058

The molecule COCCO[C@@H](C)c1c(NC(=O)Nc2cnc(OC)c(Cl)c2)cnc2cc(Cl)nn12 , tested on Human IL2 promoter, showed IC50 of 0.043

Entry CC(C)c1c(NC(=O)Nc2cnc(N3CCCS3(=O)=O)c(C(F)(F)F)c2)cnc2cc(Cl)nn12 ; assay system Human IL2 promoter; IC50 recorded at 0.248

Reported IC50 (Human IL2 promoter) for entry CO[C@@H](C)c1c(NC(=O)Nc2cncc(C#N)c2)cnc2cc(Cl)nn12 is 0.033

Kindly note: Human IL2 promoter, CC(C)c1c(NC(=O)Nc2cc(Cl)c(=O)n(C)c2-n2cccn2)cnc2cc(Cl)nn12 , IC50 value reported: 0.214

Human IL2 promoter data for Cc1cc2ncc(NC(=O)Nc3cnc(-n4nccn4)c(Cl)c3)c(C3(C)CCCO3)n2n1 (centres unmarked) ; its IC50: 0.024

The recorded IC50 with Human IL2 promoter for COCC(OC)c1c(NC(=O)Nc2cnc(-n3nccn3)c(C(F)(F)F)c2)cnc2cc(Cl)nn12 (centres unmarked) was 0.052

Bench note, Human IL2 promoter: Cc1cc2ncc(NC(=O)Nc3cnc(-n4nccn4)c(Cl)c3)c(C3(C)CC3)n2n1 , IC50 reads 0.14

Note to self: IC50 of CO[C@@H](C)c1c(NC(=O)Nc2cnc(-n3nccn3)c(Cl)c2)cnc2cc(C)nn12 with Human IL2 promoter was 0.014

Entry CN[C@H](c1c(NC(=O)Nc2cnc(-n3nccn3)c(Cl)c2)cnc2cc(Cl)nn12)C(C)C ; assay system Human IL2 promoter; IC50 recorded at 0.041

Known value: Human IL2 promoter IC50 of the molecule CO[C@H](c1c(NC(=O)Nc2cnc(-n3nccn3)c(Cl)c2)cnc2cc(Cl)nn12)[C@@H](C)OC equals 0.044

Observed IC50, Human IL2 promoter, COC(c1c(NC(=O)Nc2ccnc(C(F)(F)F)c2)cnc2cc(Cl)nn12)C1CCOCC1 (centres unmarked) : 0.927

Readout IC50 for COCC(C)(OC)c1c(NC(=O)Nc2cnc(-n3nccn3)c(Cl)c2)cnc2cc(Cl)nn12 (centres unmarked) , test system Human IL2 promoter, was 0.063

Kindly note: Human IL2 promoter, CO[C@@H](C)c1c(NC(=O)Nc2cnc(-n3nccn3)c(C(F)F)c2)cnc2cc(Cl)nn12 , IC50 value reported: 0.046

Record COC(C)(C)c1c(NC(=O)Nc2cnc(-n3nccn3)c(Cl)c2)cnc2cc(Cl)nn12 / Human IL2 promoter, IC50 recorded as 0.067
